Origin of the recorded values: patent US7772271B2

Test readout: melting point

Tell me its melting point given Cc1csc(Nc2ccc(-c3c(C#N)c4ccc(Oc5ncccn5)cc4n3C3CCC3)cc2)n1 [compound 3180] as the entry.
223 to 225 °C

Tell me its melting point given CCOc1ccc2c(C#N)c(-c3ccc4c(c3)CCC(=O)N4)n(C3CCC3)c2c1 [Compound 3221] as the entry.
249 to 250 °C

Tell me its melting point given C[C@@H](OC(=O)Nc1ccc(-c2c(C#N)c3cc(OCCCn4ccnc4)ccc3n2C2CCC2)cc1)C1CC1 [Compound 2723] as the entry.
182 to 184 °C

Tell me its melting point given CCCCNC(=O)Oc1ccc(-c2c(C#N)c3ccc(OC4CCOCC4)cc3n2CC2CC2)cc1 [Compound 2783] as the entry.
146 to 147 °C

Tell me its melting point given Cc1cc(NC(=O)O[C@H](C)C2CC2)ccc1-c1c(C#N)c2ccc(Oc3ncccc3C#N)cc2n1C1CCC1 [Compound 3333] as the entry.
108 to 115 °C

Tell me its melting point given C[C@@H](OC(=O)Nc1ccc(-c2c(C#N)c3ccc(OCS(C)(=O)=O)cc3n2C2CCCC2)cc1)C1CC1 [Compound 3068] as the entry.
218 to 224 °C

Tell me its melting point given CCCS(=O)(=O)Nc1ccc(-c2c(C#N)c3ccc(Oc4nccnc4C#N)cc3n2C2CCC2)c(C)c1 [Compound 3274] as the entry.
222 to 225 °C

Tell me its melting point given COCCOc1ccc2c(C#N)c(-c3ccc(C(=O)NC4CC4)cc3)n(C3CCC3)c2c1 [Compound 2760] as the entry.
228 to 230 °C

Tell me its melting point given CC(C)NC(=O)Nc1ccc(-c2c(C#N)c3ccc(Oc4ncccn4)cc3n2C2CCC2)cc1C#N [Compound 3325] as the entry.
173 to 181 °C

Tell me its melting point given C[C@@H](OC(=O)Nc1ccc(-c2c(C#N)c3ccc(N4CCCC4=O)cc3n2C2CCC2)cc1)C1CC1 [Compound 3332] as the entry.
140 °C (dec.)

Tell me its melting point given CC(C)NC(=O)Nc1ccc(-c2c(C#N)c3ccc(OCC(O)Cn4ccnc4)cc3n2C2CCC2)cc1 (stereo not shown) [Compound 1421] as the entry.
138 to 140 °C
